Data provenance: patent US20260226048A1

Target: FLT3 (Homo sapiens, UniProt P36888)
Sequence (P36888 27-993): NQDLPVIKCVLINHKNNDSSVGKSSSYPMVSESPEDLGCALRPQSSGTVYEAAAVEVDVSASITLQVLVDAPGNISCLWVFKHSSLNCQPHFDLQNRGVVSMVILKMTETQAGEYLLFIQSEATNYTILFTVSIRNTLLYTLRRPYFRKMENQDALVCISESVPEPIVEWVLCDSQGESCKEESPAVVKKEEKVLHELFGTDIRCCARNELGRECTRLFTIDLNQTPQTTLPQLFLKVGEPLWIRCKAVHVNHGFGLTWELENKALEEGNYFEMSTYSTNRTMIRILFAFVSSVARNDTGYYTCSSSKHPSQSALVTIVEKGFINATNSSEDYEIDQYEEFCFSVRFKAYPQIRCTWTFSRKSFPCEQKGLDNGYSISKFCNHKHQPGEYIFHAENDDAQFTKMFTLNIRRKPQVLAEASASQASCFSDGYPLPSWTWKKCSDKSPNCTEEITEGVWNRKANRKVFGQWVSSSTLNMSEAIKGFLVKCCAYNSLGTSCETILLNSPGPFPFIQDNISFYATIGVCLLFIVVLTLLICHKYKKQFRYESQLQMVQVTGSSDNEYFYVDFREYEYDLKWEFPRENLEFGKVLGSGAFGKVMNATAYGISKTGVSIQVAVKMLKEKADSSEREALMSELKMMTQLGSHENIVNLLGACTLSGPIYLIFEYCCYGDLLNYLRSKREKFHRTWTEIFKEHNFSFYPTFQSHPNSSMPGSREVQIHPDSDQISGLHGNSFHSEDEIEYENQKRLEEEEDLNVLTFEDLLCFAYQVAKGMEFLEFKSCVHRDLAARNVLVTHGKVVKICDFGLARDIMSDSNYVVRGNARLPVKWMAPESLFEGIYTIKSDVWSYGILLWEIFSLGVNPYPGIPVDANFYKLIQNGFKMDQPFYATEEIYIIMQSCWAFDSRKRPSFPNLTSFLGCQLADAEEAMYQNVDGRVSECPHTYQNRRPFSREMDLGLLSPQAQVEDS
Assay: RBC HotSpot Kinase Assay, FLT3
Format: biochemical
Parameters: purchased Reaction Biology (RBC HotSpot)
Settings: isolated kinase enzyme, 33P-ATP, P81 filter-binding
Reported Property: IC50

INSERT INTO measurements (molecule, reported_property, val) VALUES
  ('COc1cc2ncc(-c3nc(N[C@H]4CNCC[C@@H]4F)ncc3F)n2nc1[C@H]1C[C@@H](O)C1 [Compound 126a]', 'IC50', '< 0.5 nM'),
  ('COc1cc2ncc(-c3nc(N[C@H]4CNC[C@@H]4F)ncc3F)n2nc1C1CC2(CCC2)C1 [Compound 58a]', 'IC50', '< 0.5 nM'),
  ('COc1cc2ncc(-c3ccnc(N[C@H]4CNCC[C@@H]4F)n3)n2nc1C(C)(C)O [Compound 40a]', 'IC50', '3 nM'),
  ('COc1cc2ncc(-c3ccnc(N[C@H]4CNCC[C@@H]4F)n3)n2nc1C1COC1 [Compound 97a]', 'IC50', '0.7 nM'),
  ('COc1cc2ncc(-c3ccnc(N[C@H]4CNCC[C@@H]4F)n3)n2nc1C12CC(C1)C2 [Compound 91a]', 'IC50', '< 0.5 nM'),
  ('CC(O)(c1cn2c(-c3nc(N[C@@H]4CCCNC4)ncc3F)cnc2cn1)C(F)(F)F (single isomer, unassigned) [Compound 131a]', 'IC50', '2 nM'),
  ('F[C@H]1CNC[C@@H]1Nc1nccc(-c2cnc3cc(OC4CC4)c(C4CC4)nn23)n1 [Compound 10a]', 'IC50', '< 0.5 nM'),
  ('COc1cc2ncc(-c3ccnc(N[C@H]4CNC[C@@H]4F)n3)n2nc1C1CCCCC1 [Compound 86a]', 'IC50', '< 0.5 nM'),
  ('F[C@H]1CNC[C@@H]1Nc1cncc(-c2cnc3cc(OC4CC4)c(C4CC4)nn23)n1 [Compound 14a]', 'IC50', '< 0.5 nM'),
  ('CC(O)(c1cn2c(-c3nc(N[C@@H]4CCCNC4)ncc3F)cnc2cn1)C(F)(F)F (single isomer, unassigned) [Compound 132a]', 'IC50', '< 0.5 nM');

Batch request: IC50 per item, same order as input.
1. CC(C)(O)c1ccc2ncc(-c3nc(N[C@H]4CNCC[C@@H]4F)ncc3F)n2c1 [Compound 46a]
2. COc1cc2ncc(-c3cncc(N[C@H]4CNCC[C@@H]4F)n3)n2nc1C1CC(F)(F)C1 [Compound 73a]
3. COc1cc2ncc(-c3nc(N[C@H]4CNCC[C@@H]4F)ncc3F)n2nc1C1CCC1 [Compound 54a]
4. COc1cc2ncc(-c3nc(N[C@H]4CNC[C@@H]4F)ncc3F)n2nc1N1CCCC1=O [Compound 107a]

Ans:
1: < 0.7 nM; 2: < 0.5 nM; 3: < 0.5 nM; 4: 0.6 nM

Q: Return IC50 measured with FLT3 (Homo sapiens, UniProt P36888) given this molecule: FC(F)COc1cc2ncc(-c3ccnc(N[C@H]4CNC[C@@H]4F)n3)n2nc1C1CC1
Ans: < 0.5 nM

---

Biological target: FLT3 (Homo sapiens)
Assay: RBC HotSpot Kinase Assay, FLT3
Format: biochemical
Set-up: purchased Reaction Biology (RBC HotSpot)
Conditions: isolated kinase enzyme, 33P-ATP, P81 filter-binding
Reported Property: IC50

INSERT INTO results (compound, reported_property, val) VALUES
  ('COc1cc2ncc(-c3nc(N[C@@H]4CCCNC4)ncc3F)n2nc1C12CC(C1)C2 [Compound 68a]', 'IC50', '< 0.5 nM'),
  ('COc1cc2ncc(-c3ccnc(N[C@H]4CNCC[C@@H]4F)n3)n2nc1C1CCC1 [Compound 79a]', 'IC50', '< 0.5 nM'),
  ('COc1cc2ncc(-c3ccnc(N[C@H]4CNC[C@@H]4F)n3)n2nc1C1COC1 [Compound 95a]', 'IC50', '0.7 nM'),
  ('COc1cc2ncc(-c3nc(N[C@H]4CNC[C@@H]4F)ncc3F)n2nc1C1CC1 [Compound 2a]', 'IC50', '< 0.5 nM'),
  ('CC(O)(c1ccc2ncc(-c3cncc(N[C@H]4CNC[C@@H]4F)n3)n2c1)C(F)(F)F (single isomer, unassigned) [Compound 30a]', 'IC50', '2 nM'),
  ('COc1cc2ncc(-c3ccnc(N[C@@H]4CCCNC4)n3)n2nc1C1CC(F)(F)C1 [Compound 21a]', 'IC50', '< 0.5 nM'),
  ('COc1cc2ncc(-c3nc(N[C@H]4CNC[C@@H]4F)ncc3F)n2nc1C(C)(C)O [Compound 44a]', 'IC50', '< 0.5 nM');

Q: Give the measured IC50 of FC(F)COc1cc2ncc(-c3cncc(N[C@H]4CNCC[C@@H]4F)n3)n2nc1C1CC1 [Compound 7a] .
Ans: < 0.5 nM
